- target.of.assay: IDH2 R140Q (Homo sapiens, UniProt P48735, R140Q)
- Sequence (P48735 40-452 R140Q): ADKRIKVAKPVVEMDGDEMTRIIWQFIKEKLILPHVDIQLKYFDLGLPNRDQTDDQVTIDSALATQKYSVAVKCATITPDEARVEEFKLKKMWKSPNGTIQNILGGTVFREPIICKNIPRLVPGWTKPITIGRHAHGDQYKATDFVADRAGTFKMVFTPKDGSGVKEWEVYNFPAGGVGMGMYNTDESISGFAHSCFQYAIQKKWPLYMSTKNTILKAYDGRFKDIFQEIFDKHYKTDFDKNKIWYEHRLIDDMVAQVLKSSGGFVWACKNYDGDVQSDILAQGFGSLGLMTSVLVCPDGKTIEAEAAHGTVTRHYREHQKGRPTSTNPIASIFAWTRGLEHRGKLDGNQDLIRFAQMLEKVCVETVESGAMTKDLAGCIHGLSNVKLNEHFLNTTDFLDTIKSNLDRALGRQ
- assay.text: IDH2 R140Q enzymatic assay (cofactor depletion, similar format)
- Type: biochemical
- experimental.parameters: read-out: Enz R140Q
recorded.metric: IC50

mol.smiles | target.of.assay | meas.value
CC(C)(O)CNc1nc(Nc2ccncc2)nc(-c2ccccc2)n1 | IDH2 R140Q (Homo sapiens, UniProt P48735, R140Q) | 100 to 1000 nM
Nc1ccnc(-c2nc(NCC3CC3)nc(Nc3cc(F)cc(F)c3)n2)n1 | IDH2 R140Q (Homo sapiens, UniProt P48735, R140Q) | 100 to 1000 nM
CC(C)(CO)CNc1nc(Nc2ccccc2)nc(-c2ccccc2)n1 | IDH2 R140Q (Homo sapiens, UniProt P48735, R140Q) | < 100 nM
